Entry source: ChEMBL document CHEMBL1145498

// Serine/threonine-protein kinase 4 (Homo sapiens) (UniProt Q13043) ΔTm records
Numbers only; they are read as °C.

Would you please look over these solved cases?
Request: Given COc1ccc(COc2ccc(Cc3cnc(N)nc3N)cc2OC)cc1 , state its recorded ΔTm.
Result: 0.2

Request: Can you look up the measured ΔTm of C/C(O)=C(\C#N)C(=O)Nc1cc(Br)ccc1Br for me?
Result: 0.2

# next compound below
Request: Bench note: what ΔTm did OC[C@H]1O[C@@H](n2cnc3cc(Cl)c(Cl)cc32)[C@H](O)[C@@H]1O show?
Result: 0.2

* * *

- target_under_test: 5'-AMP-activated protein kinase catalytic subunit alpha-2 (Homo sapiens) (UniProt P54646)
- Sequence (P54646 whole entry, looked up): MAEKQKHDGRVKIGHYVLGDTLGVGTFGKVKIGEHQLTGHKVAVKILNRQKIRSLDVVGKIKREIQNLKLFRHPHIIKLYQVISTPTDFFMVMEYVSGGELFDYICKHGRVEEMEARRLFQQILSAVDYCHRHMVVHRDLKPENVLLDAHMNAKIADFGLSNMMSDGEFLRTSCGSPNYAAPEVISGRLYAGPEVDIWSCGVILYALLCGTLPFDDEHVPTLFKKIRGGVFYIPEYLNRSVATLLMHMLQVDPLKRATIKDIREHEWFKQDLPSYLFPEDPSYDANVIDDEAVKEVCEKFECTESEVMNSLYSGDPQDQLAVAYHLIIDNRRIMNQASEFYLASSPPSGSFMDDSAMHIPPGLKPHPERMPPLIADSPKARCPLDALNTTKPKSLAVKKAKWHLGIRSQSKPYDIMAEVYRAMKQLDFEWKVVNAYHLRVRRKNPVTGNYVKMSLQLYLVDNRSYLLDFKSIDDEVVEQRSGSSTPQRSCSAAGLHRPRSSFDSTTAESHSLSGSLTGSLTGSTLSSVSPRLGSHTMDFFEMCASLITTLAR
Overview of recorded ΔTm for various molecules
Dear colleague, please return just the value in °C, with no unit written.

Past entries and their recorded results:
Request: Can you look up ΔTm on 5'-AMP-activated protein kinase catalytic subunit alpha-2 (Homo sapiens) (UniProt P54646) for O=C1Cc2c([nH]c3ccc([N+](=O)[O-])cc23)-c2ccccc2N1 ?
Result: 0.7

Request: What value of ΔTm on 5'-AMP-activated protein kinase catalytic subunit alpha-2 (Homo sapiens) (UniProt P54646) does O=[N+]([O-])c1ccc(-c2nc(-c3ccc(F)cc3)c(-c3ccncc3)[nH]2)cc1 have?
Result: -0.4

Request: # get_value(readout= ΔTm, system= 5'-AMP-activated protein kinase catalytic subunit alpha-2 (Homo sapiens) (UniProt P54646)) for O=C(O)c1cc(NCc2cc(O)ccc2O)ccc1O
Result: -0.8

Request: What value of ΔTm on 5'-AMP-activated protein kinase catalytic subunit alpha-2 (Homo sapiens) (UniProt P54646) does C=CNC#N have?
Result: -0.7

Request: Please tell me: ΔTm of CSc1nc(-c2ccc(F)cc2)c(-c2ccnc(NC(C)c3ccccc3)c2)[nH]1 (racemic) , system 5'-AMP-activated protein kinase catalytic subunit alpha-2 (Homo sapiens) (UniProt P54646)?
Result: -0.4

New cases:
Request: Which ΔTm is reported with 5'-AMP-activated protein kinase catalytic subunit alpha-2 (Homo sapiens) (UniProt P54646) for this entry: O=c1ccc2ccc(O)c(O)c2o1 ?
Result: -0.1

Request: Enter reported ΔTm observed with 5'-AMP-activated protein kinase catalytic subunit alpha-2 (Homo sapiens) (UniProt P54646) for Oc1cc(O)cc(/C=C/c2ccc(O)c(O)c2)c1
Result: 0.2

Request: Notebook entry, 5'-AMP-activated protein kinase catalytic subunit alpha-2 (Homo sapiens) (UniProt P54646) assay: ΔTm of COc1cc(O)c2c(c1)oc(=O)c1c3cc(O)c(O)cc3oc21 = ?
Result: -0.8

Request: Lab note: need ΔTm with 5'-AMP-activated protein kinase catalytic subunit alpha-2 (Homo sapiens) (UniProt P54646) for entry Nc1n[nH]c2nnc(-c3c(-c4ccccc4)nn4ccccc34)cc12 , please look it up.
Result: 0

Request: Lab request: please report ΔTm under test system 5'-AMP-activated protein kinase catalytic subunit alpha-2 (Homo sapiens) (UniProt P54646) for Cc1ccc(NC(=O)c2ccc(CN3CCN(C)CC3)cc2)cc1Nc1nccc(-c2cccnc2)n1
Result: 2.6

Request: Value wanted: ΔTm (5'-AMP-activated protein kinase catalytic subunit alpha-2 (Homo sapiens) (UniProt P54646)) of entry COc1cccc(-c2cc(=O)c3ccccc3o2)c1N
Result: -0.5

* * *

For Serine/threonine-protein kinase 10 (Homo sapiens) (UniProt O94804), measured ΔTm is reported for the entries below.
The figure you give is taken to be in °C; do not add the unit.

Known ΔTm results, listed for orientation:
Request: Please report the recorded ΔTm for O=S(=O)(NCCNC/C=C/c1ccc(Br)cc1)c1cccc2cnccc12 .
Result: -0.4

Request: // ΔTm lookup, key: O=C(O)c1cc(N(Cc2ccccc2O)Cc2cc(O)ccc2O)ccc1O
Result: 0.1

Request: Tell me the measured ΔTm of COc1cc(O)c2c(c1)oc(=O)c1c3cc(O)c(O)cc3oc21 , please.
Result: 1.3

***
Request: // query ΔTm value for entry CC(C)c1nn(-c2c(Cl)cccc2Cl)c2nc(Cc3ccc(OCCO)cc3)[nH]c(=O)c12
Result: 0.6

* * *

- target_under_test: Dual specificity mitogen-activated protein kinase kinase 2 (Homo sapiens)
- Sequence (P36507 whole entry): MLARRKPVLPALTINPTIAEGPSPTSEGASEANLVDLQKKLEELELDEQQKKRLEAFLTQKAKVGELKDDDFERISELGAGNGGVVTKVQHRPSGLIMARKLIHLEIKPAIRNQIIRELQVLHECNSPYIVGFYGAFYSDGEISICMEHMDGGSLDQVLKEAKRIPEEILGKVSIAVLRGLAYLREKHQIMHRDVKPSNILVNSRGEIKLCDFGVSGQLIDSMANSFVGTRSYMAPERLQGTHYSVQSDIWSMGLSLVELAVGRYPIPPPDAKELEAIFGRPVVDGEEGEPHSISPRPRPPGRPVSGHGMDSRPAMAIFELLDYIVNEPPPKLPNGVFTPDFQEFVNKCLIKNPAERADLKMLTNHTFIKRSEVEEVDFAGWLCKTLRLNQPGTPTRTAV
Define the label as rule met when ΔTm is strictly less than 0.8 °C and as rule not met in all remaining cases.

Example entries begin here.
Request: Strictly below 0.8 °C in ΔTm? CN1CCc2[nH]c(=S)c(C#N)c(-c3cccs3)c2C1
Result: rule met

Request: I wonder whether NC(=O)c1ccc2[nH]c(-c3ccc(Oc4ccc(Cl)cc4)cc3)nc2c1 has ΔTm below 0.8 °C. Can you tell?
Result: rule met

Request: Below 0.8 °C on ΔTm? Entry O=c1cc(N2CCOCC2)oc2c(-c3ccccc3)cccc12
Result: rule met

Request: Is ΔTm strictly under 0.8 °C for the entry Cc1ccc(NC(=O)c2cccc(N(C)C)c2)cc1NC(=O)c1ccc(O)cc1 ?
Result: rule met

Request: Quick check: does O=c1c2ccccc2[nH]c(=S)n1CCN1CCC(=C(c2ccc(F)cc2)c2ccc(F)cc2)CC1 have ΔTm under 0.8 °C?
Result: rule met

Request: I'd appreciate it if you could check whether Cc1nc(N)sc1-c1ccnc(Nc2cccc([N+](=O)[O-])c2)n1 has ΔTm smaller than 0.8 °C.
Result: rule not met

Request: Is ΔTm of CCN1/C(=C/C(C)=O)Sc2ccc(OC)cc21 strictly below 0.8 °C?
Result: rule met

Request: Is ΔTm strictly under 0.8 °C for the entry CC(C)(C)n1nc(-c2ccc(Cl)cc2)c2c(N)ncnc21 ?
Result: rule not met

New cases:
Request: Dear reviewer, please state whether COc1ccc(COc2ccc(Cc3cnc(N)nc3N)cc2OC)cc1 has ΔTm strictly beneath 0.8 °C.
Result: rule met

* * *

In what follows, each item is paired with its ΔTm for Mitogen-activated protein kinase 3 (Homo sapiens, UniProt P27361).
Use °C as the unit, but write only the number.

Request: Give Mitogen-activated protein kinase 3 (Homo sapiens, UniProt P27361) ΔTm for NC1=N/C(=C2/CCNC(=O)c3[nH]ccc32)C(=O)N1 [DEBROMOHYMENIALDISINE]
Result: 0.6

Request: Look up ΔTm with Mitogen-activated protein kinase 3 (Homo sapiens, UniProt P27361) for this compound: CC(C)(C)n1nc(-c2cccc3ccccc23)c2c(N)ncnc21
Sequence (P27361 whole entry): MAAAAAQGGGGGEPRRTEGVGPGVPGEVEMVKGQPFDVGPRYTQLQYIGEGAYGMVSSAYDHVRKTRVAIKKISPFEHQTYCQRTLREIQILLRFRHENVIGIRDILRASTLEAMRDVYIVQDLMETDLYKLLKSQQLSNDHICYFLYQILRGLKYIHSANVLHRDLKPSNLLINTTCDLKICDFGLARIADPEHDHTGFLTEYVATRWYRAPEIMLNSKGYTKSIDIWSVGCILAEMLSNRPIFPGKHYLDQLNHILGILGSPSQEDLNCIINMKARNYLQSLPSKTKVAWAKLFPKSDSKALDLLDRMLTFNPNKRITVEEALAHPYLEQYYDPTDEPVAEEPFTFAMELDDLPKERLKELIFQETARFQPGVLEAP
Result: 0.8

Request: Field: ΔTm (Mitogen-activated protein kinase 3 (Homo sapiens, UniProt P27361)). Entry: CC(=O)O/N=C1/C(=C2/C(=O)Nc3cc(Br)ccc32)Nc2ccccc21 [6-BROMOINDIRUBIN-3'-ACETOXIME]
Result: 0

Request: I'm curious: which ΔTm was measured for Nc1nc(Nc2ccc(S(N)(=O)=O)cc2)nn1C(=S)Nc1c(F)cccc1F tested on Mitogen-activated protein kinase 3 (Homo sapiens, UniProt P27361)?
Result: 3.6

Request: # query: ΔTm | item Cc1c2ccncc2c(C)c2c1[nH]c1ccccc12 [ELLIPTECINE] | system: Mitogen-activated protein kinase 3 (Homo sapiens, UniProt P27361)
Result: 0.3

Now consider the entry below.
Request: Provide the documented ΔTm with Mitogen-activated protein kinase 3 (Homo sapiens, UniProt P27361) as the system for O=C1c2ccccc2-c2n[nH]c3cccc1c23
Result: 0.9

* * *

- target_under_test: Serine/threonine-protein kinase PAK 5 (Homo sapiens)
metric_name: ΔTm (°C)
Answer format: numeric, °C implied, no suffix.

Solved cases (4 shown):
Request: Under Serine/threonine-protein kinase PAK 5 (Homo sapiens): ΔTm value of Cc1ccc(NC2=CC(=O)c3sc(C)nc3C2=O)cc1 ?
Result: 0.4

Request: Reported ΔTm for Serine/threonine-protein kinase PAK 5 (Homo sapiens), given Cc1nc2sccn2c(=O)c1CCN1CCC(=C(c2ccccc2)c2ccc(F)cc2)CC1 ?
Result: 1

Request: ΔTm, test system Serine/threonine-protein kinase PAK 5 (Homo sapiens), entry O=S(=O)(NCCNC/C=C/c1ccc(Br)cc1)c1cccc2cnccc12
Result: 1.2

Request: I'm curious: which ΔTm was measured for NCCNc1ncc(C(N)=O)c(Nc2cccc(C(F)(F)F)c2)n1 tested on Serine/threonine-protein kinase PAK 5 (Homo sapiens)?
Result: 5.2

Continuing:
Request: Reported ΔTm for Serine/threonine-protein kinase PAK 5 (Homo sapiens), given Oc1ccc(-c2nc(-c3ccc(F)cc3)c(-c3ccncc3)[nH]2)cc1 ?
Result: 0.5

Request: # returns recorded ΔTm (system: Serine/threonine-protein kinase PAK 5 (Homo sapiens)) for Cn1cc(/C=C2/C(=O)Nc3ccc(S(N)(=O)=O)cc32)c2ccccc21
Result: 4.3

* * *

The following are reported ΔTm results, target or system Casein kinase I isoform gamma-2 (Homo sapiens) (UniProt P78368).
Put your answer as a value accompanied by its unit after it.

Some entries whose results are on file:
Request: Any idea what ΔTm came out for CCOc1cc(/C=C(\C#N)C(N)=O)cc(CSc2ccccc2)c1O on Casein kinase I isoform gamma-2 (Homo sapiens) (UniProt P78368)?
Result: 0.7 °C

Request: Find ΔTm (Casein kinase I isoform gamma-2 (Homo sapiens) (UniProt P78368)) for the entry N#C/C(=C1/Nc2ccccc2S1)c1ccnc(NCCc2cccnc2)n1
Result: 2.5 °C

Next compound, please.
Request: # query: ΔTm | item CCCNC(=O)Nc1ccc(Oc2ncnc3cc(OC)c(OC)cc23)cc1Cl [KRN-633] | system: Casein kinase I isoform gamma-2 (Homo sapiens) (UniProt P78368)
Result: 0.5 °C
